molecular target: T1, Pro-Phe-Arg-MCA
T1 chain: PFR
Sorting guide: entries reporting kcat beneath 2 s⁻¹ go in the Fulfilled pile, the rest go in the Not fulfilled pile.

Medaka EP-1 serine protease domain (wild-type) (protein) VVGGVNAEKGAWPWMVSLHWRGRHGCGASLIGRDWLLTAAHCVYGKNTHLQYWSAVLGLHAQSSMNSQEVQIRQVDRIIINKNYNRRTKEADIAMMHLQQPVNFTEWVLPVCLASEDQHFPAGRRCFIAGWGRDAEGGSLPDILQEAEVPLVDQDECQRLLPEYTFTSSMLCAGYPEGGVDSCQGDSGGPLMCLEDARWTLIGVTSFGVGCGRPERPGAYARVSAFTSWIAETRRSSFSDLD | Not fulfilled
Medaka EP-1 serine protease domain mutant K63R (protein) VVGGVNAEKGAWPWMVSLHWRGRHGCGASLIGRDWLLTAAHCVYGRNTHLQYWSAVLGLHAQSSMNSQEVQIRQVDRIIINKNYNRRTKEADIAMMHLQQPVNFTEWVLPVCLASEDQHFPAGRRCFIAGWGRDAEGGSLPDILQEAEVPLVDQDECQRLLPEYTFTSSMLCAGYPEGGVDSCQGDSGGPLMCLEDARWTLIGVTSFGVGCGRPERPGAYARVSAFTSWIAETRRSSFSDLD | Fulfilled
porcine EP serine protease domain (Ile800 to His1034) (protein) IVGGNDSREGAWPWVVALYYNGQLLCGASLVSRDWLVSAAHCVYGRNLEPSKWKAILGLHMTSNLTSPQIVTRLIDEIVINPHYNRRRKDSDIAMMHLEFKVNYTDYIQPICLPEENQVFPPGRICSIAGWGKVIYQGSPADILQEADVPLLSNEKCQQQMPEYNITENMMCAGYEEGGIDSCQGDSGGPLMCLENNRWLLAGVTSFGYQCALPNRPGVYARVPKFTEWIQSFLH | Not fulfilled
Medaka EP-1 serine protease domain mutant T105E (protein) VVGGVNAEKGAWPWMVSLHWRGRHGCGASLIGRDWLLTAAHCVYGKNTHLQYWSAVLGLHAQSSMNSQEVQIRQVDRIIINKNYNRREKEADIAMMHLQQPVNFTEWVLPVCLASEDQHFPAGRRCFIAGWGRDAEGGSLPDILQEAEVPLVDQDECQRLLPEYTFTSSMLCAGYPEGGVDSCQGDSGGPLMCLEDARWTLIGVTSFGVGCGRPERPGAYARVSAFTSWIAETRRSSFSDLD | Fulfilled

--- query ---
Regarding Medaka EP-1 serine protease domain mutant P193E (protein) VVGGVNAEKGAWPWMVSLHWRGRHGCGASLIGRDWLLTAAHCVYGKNTHLQYWSAVLGLHAQSSMNSQEVQIRQVDRIIINKNYNRRTKEADIAMMHLQQPVNFTEWVLPVCLASEDQHFPAGRRCFIAGWGRDAEGGSLPDILQEAEVPLVDQDECQRLLPEYTFTSSMLCAGYEEGGVDSCQGDSGGPLMCLEDARWTLIGVTSFGVGCGRPERPGAYARVSAFTSWIAETRRSSFSDLD , kindly confirm whether its kcat is beneath 2 s⁻¹.
Fulfilled
